Δb value (difference in yellowing between blank paint and candidate paint sample) values for the compounds below.
# Protocol Details: Light-induced yellowing of IPBC-containing white test paint film after UV exposure
# Assay type: physicochemical
# Run Parameters: styrenated acrylic white house paint, IPBC 0.3%; formulation 20% IPBC / 40% UV absorber / 40% N-methyl pyrrolidone; paint film exposed to 340 nm UV radiation for four hours
Observable: Δb value (difference in yellowing between blank paint and candidate paint sample)

>  <Compound>
COc1ccc(C=C2C(=O)C3(C)CCC2C3(C)C)cc1 (stereo not shown) [3-(4-methoxybenzylidene)camphor]

>  <Val>
1.3

$$$$
>  <Compound>
CC(C)c1ccc(C=C2C(=O)C3(C)CCC2C3(C)C)cc1 (stereo not shown) [3-(4-isopropylbenzylidene)camphor]

>  <Val>
3.5

$$$$
>  <Compound>
CCOc1ccc(C=C2C(=O)C3(C)CCC2C3(C)C)cc1 (stereo not shown) [3-(4-ethoxybenzylidene)camphor]

>  <Val>
1.3

$$$$
>  <Compound>
CC12CCC(C(=Cc3ccccc3)C1=O)C2(C)C (stereo not shown) [benzylidenecamphor]

>  <Val>
2.8

$$$$

----------
# Protocol Details: Light-induced yellowing of IPBC-containing white test paint film after UV exposure
# Assay type: physicochemical
# Run Parameters: same test, assessment in words compared to the blank
Observable: effectiveness of the UV absorber in inhibiting degradation/yellowing of the IPBC

>  <Compound>
COc1ccc(C=C2C(=O)C3(C)CCC2C3(C)C)cc1 (centres unmarked)

>  <Val>
very effective

$$$$
>  <Compound>
CCOc1ccc(C=C2C(=O)C3(C)CCC2C3(C)C)cc1 (centres unmarked)

>  <Val>
very effective

$$$$
>  <Compound>
CC(C)c1ccc(C=C2C(=O)C3(C)CCC2C3(C)C)cc1 (centres unmarked)

>  <Val>
reasonably effective

$$$$
>  <Compound>
Cc1ccccc1C=C1C(=O)C2(C)CCC1C2(C)C (centres unmarked)

>  <Val>
reasonably effective

$$$$
>  <Compound>
CC12CCC(C(=Cc3cccc(Cl)c3)C1=O)C2(C)C (centres unmarked)

>  <Val>
reasonably effective

$$$$

----------
# Protocol Details: Light-induced yellowing of IPBC-containing white test paint film after UV exposure
# Format: physicochemical
# Run Parameters: styrenated acrylic white house paint, IPBC 0.3%; formulation 20% IPBC / 40% UV absorber / 40% N-methyl pyrrolidone; paint film exposed to 340 nm UV radiation for four hours
Assign labels as follows, please: true (1) for Δb value (difference in yellowing between blank paint and candidate paint sample) below 3; false (0) for Δb value (difference in yellowing between blank paint and candidate paint sample) equal to or exceeding 3.

>  <Molecule>
CC12CCC(C(=Cc3ccc(Br)cc3)C1=O)C2(C)C (centres unmarked)

>  <Classification>
false (0)

$$$$
>  <Molecule>
CCCCOc1ccc(C=C2C(=O)C3(C)CCC2C3(C)C)cc1 (centres unmarked)

>  <Classification>
true (1)

$$$$
>  <Molecule>
Cc1ccccc1C=C1C(=O)C2(C)CCC1C2(C)C (centres unmarked)

>  <Classification>
false (0)

$$$$
>  <Molecule>
Cc1ccc(C=C2C(=O)C3(C)CCC2C3(C)C)cc1 (centres unmarked)

>  <Classification>
true (1)

$$$$
>  <Molecule>
CC12CCC(C(=Cc3ccc4c(c3)OCCO4)C1=O)C2(C)C (centres unmarked)

>  <Classification>
true (1)

$$$$
>  <Molecule>
CCCCNC(=O)OCC#CI [IPBC, 3-iodo-2-propynyl butyl carbamate, reference compound]

>  <Classification>
false (0)

$$$$
>  <Molecule>
CC12CCC(C(=Cc3cccc(Cl)c3)C1=O)C2(C)C (centres unmarked)

>  <Classification>
false (0)

$$$$
>  <Molecule>
Cc1cccc(C=C2C(=O)C3(C)CCC2C3(C)C)c1 (centres unmarked)

>  <Classification>
true (1)

$$$$
